System: Oryza sativa (OS)
Assay: Comparative Example: chemical damage to transplanted rice under flooding conditions
Format: in vivo
Conditions: 125 g a.i./ha, applied dropwise to water surface, day 21 after treatment
From the text: The control compound a is described as Compound No. III-1 on page 245 of PLT 5, and the control compound b is described as Compound No. III-9 on page 245 of PTL 5. […] As an example, herbicidal efficacy against critical paddy field weeds such as Monochoria vaginalis (MV) and Ammannia multiflora (AM) as well as Oryza sativa (OS) chemical damage were compared and are specifically described below as a Comparative Example. [Comparative Example] […]
MEASURED_ATTRIBUTE: chemical damage to transplanted rice OS (score 0-10)
Answer field: number only, no words.

Reference set, count: 3
{"columns": ["COMPOUND_STRING", "MEASURED_RESULT"],
 "data": [
  ["CCOC(=O)N(c1ccccc1CN1CCc2ccccc2C1=O)S(=O)(=O)C(F)(F)F", 0],
  ["O=C1CCCCN1Cc1ccccc1NS(=O)(=O)C(F)(F)F", 10],
  ["CCOC(=O)N(c1ccccc1CN1CCCCC1=O)S(=O)(=O)C(F)(F)F", 10]
]}

## Task Query for Oryza sativa (OS): what chemical damage to transplanted rice OS (score 0-10) does the record show for O=C1c2ccccc2CCN1Cc1ccccc1NS(=O)(=O)C(F)(F)F ?
## Result 0

Values compiled from patent US20250289788A1.
